Biological target: SHP2-C SH2;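 further: peptide library displayed on the E. coli surface as eCPX fusions, selected cells deep-sequenced, score is each peptide's frequency after selection divided by its frequency in the input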
Test: SH2 binding enrichment of the phosphorylated peptide, bacterial display (enrichment ratio); higher = better substrate or ligand; peptides without Tyr show the background
Experimental Readout: SH2 binding enrichment

Example entries and their recorded answers appear below.
Sequence Chain	SH2 binding enrichment
GGDAVYTNGTI [RFX2_Y82_A86T]	0.597
TFSPPYYHRNC [HGD_Y333_R330S]	0.859

I. DTERIYDDDFF [UBA1_Y560]
II. QSSEGYDLGDR [KIAA1210_Y564_G565D]
input: Of the two listed items, I and II , which carries the larger SH2 binding enrichment figure? Your answer should be the label attached to the chosen record.
output: II

* * *

Reported phosphorylation enrichment values follow for various sequences
Tested on: Fer (mouse)
Experiment: phosphorylation enrichment, bacterial display (enrichment ratio); higher = better substrate or ligand; peptides without Tyr show the background
The answer should be written as a number, with no unit following it.

Example entries and their recorded answers appear below.
Sequence Chain	Result Number
GIVEDYRPPLF [ACVRL1_Y421_F425L_YF]	0.406
GLPINYTTRRI [LAMA2_Y2894]	0.557
QFNMQYSSSAA [ERBB2IP_Y981_I979M_YF]	0.492
ENQEIYRKAFD [KPNA1_Y493_Q494R]	0.55
AELVRYYMEHH [PTPN11_Y80_Q79R]	0.457
SPPILYSFFLN [FCRL6_Y239_D244N_YF]	5.01

input: If you can, please state the reported phosphorylation enrichment value of LPEHPYHSRPR [NDUFA8_Y142_N140H] .
output: 1.03

input: If you can, please state the reported phosphorylation enrichment value of SARFRYLLAEK [LDHB_Y173_M175L] .
output: 0.452

input: If you can, please state the reported phosphorylation enrichment value of PGPPGYCDSSQ [COL12A1_Y3043] .
output: 0.77

input: If you can, please state the reported phosphorylation enrichment value of KGIDRYNPENL [EIF3K_Y21] .
output: 0.372

input: If you can, please state the reported phosphorylation enrichment value of LPKEQYLFTKE [AFG3L2_Y614_YF] .
output: 0.817

input: If you can, please state the reported phosphorylation enrichment value of PVGVLYEVKVY [PTS_Y128_K129E] .
output: 0.56

input: If you can, please state the reported phosphorylation enrichment value of TVSQPYSFIEF [SEC22B_Y110_R108Q] .
output: 19.4

* * *

Biological target: MERTK (UniProt Q12866)
Sequence (Q12866 whole entry, looked up): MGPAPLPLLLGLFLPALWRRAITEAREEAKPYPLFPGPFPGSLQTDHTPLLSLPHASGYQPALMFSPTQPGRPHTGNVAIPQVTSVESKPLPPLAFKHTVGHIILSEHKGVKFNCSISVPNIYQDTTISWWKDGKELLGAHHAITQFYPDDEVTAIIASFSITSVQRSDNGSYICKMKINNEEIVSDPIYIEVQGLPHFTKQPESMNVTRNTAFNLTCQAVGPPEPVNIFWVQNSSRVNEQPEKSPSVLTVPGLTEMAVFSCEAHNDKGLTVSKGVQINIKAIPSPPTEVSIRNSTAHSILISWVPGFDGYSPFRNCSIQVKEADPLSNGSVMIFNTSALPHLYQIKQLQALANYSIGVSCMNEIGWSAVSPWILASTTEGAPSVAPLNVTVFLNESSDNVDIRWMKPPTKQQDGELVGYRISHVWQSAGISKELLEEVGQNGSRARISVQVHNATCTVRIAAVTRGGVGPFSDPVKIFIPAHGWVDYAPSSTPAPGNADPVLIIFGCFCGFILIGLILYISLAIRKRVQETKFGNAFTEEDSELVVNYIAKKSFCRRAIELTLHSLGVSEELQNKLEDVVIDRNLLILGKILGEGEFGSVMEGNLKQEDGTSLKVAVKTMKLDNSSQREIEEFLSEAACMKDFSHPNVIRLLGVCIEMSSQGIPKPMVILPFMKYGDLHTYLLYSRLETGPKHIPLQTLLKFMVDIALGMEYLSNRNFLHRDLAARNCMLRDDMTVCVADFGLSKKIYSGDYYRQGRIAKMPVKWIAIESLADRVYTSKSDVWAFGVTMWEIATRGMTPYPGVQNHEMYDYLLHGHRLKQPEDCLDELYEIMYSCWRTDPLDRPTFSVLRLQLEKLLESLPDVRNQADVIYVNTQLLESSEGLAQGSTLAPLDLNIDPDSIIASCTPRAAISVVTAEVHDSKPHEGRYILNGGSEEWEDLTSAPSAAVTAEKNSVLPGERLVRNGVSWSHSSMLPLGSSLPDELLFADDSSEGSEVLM
Experiment: phosphorylation enrichment, bacterial display (enrichment ratio); higher = better substrate or ligand; peptides without Tyr show the background
Reported phosphorylation enrichment values follow for various sequences
The answer should be written as a number, with no unit following it.

input: Checklist item: phosphorylation enrichment tested on MERTK (UniProt Q12866), entry RPIEVYLCPEE [E2F3_Y349_G344R] , value?
output: 0.975

input: Checklist item: phosphorylation enrichment tested on MERTK (UniProt Q12866), entry QPSALYEDRYL [ASS1_Y83_S79P] , value?
output: 0.78

input: Checklist item: phosphorylation enrichment tested on MERTK (UniProt Q12866), entry QITQVCGFFDE [PPP2CA_Y127_Y127C_YF] , value?
output: 0.812

input: Checklist item: phosphorylation enrichment tested on MERTK (UniProt Q12866), entry LAGRFYALKSM [CKB_Y174_YF] , value?
output: 0.666

input: Checklist item: phosphorylation enrichment tested on MERTK (UniProt Q12866), entry STEAIYWRYSK [SH3PXD2B_Y42_R43W] , value?
output: 1.34

input: Checklist item: phosphorylation enrichment tested on MERTK (UniProt Q12866), entry MASTSYDFCRV [BST2_Y6_YF] , value?
output: 0.709
